Reference for the values: ChEMBL document CHEMBL1201861

- Test system: U-87 MG;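 note: growth inhibition of the cells measured with a viability assay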
- assaySummary: cells
- Format: functional, cell-based, Homo sapiens, U-87MG ATCC
- experimentalContext: Homo sapiens, U-87 MG
- Description: SANGER: Inhibition of human U-87-MG cell growth in a cell viability assay.
Give IC50 for every item shown.

Ask: If you can, please state the reported IC50 value of "CC1=C(/C=C/C(C)=C/C=C/C(C)=C/C(=O)O)C(C)(C)CCC1" .
Result: > 10 µM

Ask: If you can, please state the reported IC50 value of "CS(=O)(=O)N1CCN(Cc2cc3nc(-c4cccc5[nH]ncc45)nc(N4CCOCC4)c3s2)CC1" .
Result: > 4 µM

Ask: If you can, please state the reported IC50 value of "NC(=O)c1ccc(N(C(N)=O)c2c(F)cccc2F)nc1-c1ccc(F)cc1F" .
Result: > 2 µM

Ask: If you can, please state the reported IC50 value of "COc1cc(N2CCC(N3CCN(C)CC3)CC2)ccc1Nc1ncc(Cl)c(Nc2ccccc2S(=O)(=O)C(C)C)n1" .
Result: > 2 µM

Ask: If you can, please state the reported IC50 value of "NC(=O)c1cccc(-c2cc(Nc3ccc(OC(F)(F)F)cc3)ncn2)c1" .
Result: > 1.28 µM
